I'd be grateful if you could share measured melting point for these entries.

# annotated cases, reported melting point shown
# input Return reported melting point; argument: CC(=O)N(CCN(C)C)c1ccc(N/C(=C2\C(=O)Nc3ccc([N+](=O)[O-])cc32)c2ccccc2)cc1 [Example 328]
# output 228 to 230 °C

# input Return reported melting point; argument: CCN(CC)CCc1ccc(N/C(=C2\C(=O)Nc3ccc([N+](=O)[O-])cc32)c2ccccc2)cc1 [Example 130]
# output 167 to 168 °C

# input Return reported melting point; argument: O=C1Nc2ccc([N+](=O)[O-])cc2/C1=C(/Nc1ccc(CN2CCCCCC2)cc1)c1ccccc1 [Example 119]
# output 220 °C

Please give melting point, item by item, for the list that follows.
1. CCOC(=O)CNCc1cccc(N/C(=C2\C(=O)Nc3ccc([N+](=O)[O-])cc32)c2ccccc2)c1 [Example 111]
2. CC(=O)N1C(=O)/C(=C(\Nc2ccc(CNC(=O)OC(C)(C)C)cc2)c2ccc(CN3C(=O)c4ccccc4C3=O)cc2)c2cc([N+](=O)[O-])ccc21 [Example 146]
3. CN(C)Cc1ccc(N/C(=C2\C(=O)Nc3ccc([N+](=O)[O-])cc32)c2ccc(Cl)cc2)cc1 [Example 222]

# output
1: 130 to 133 °C; 2: 125 °C (dec.); 3: 311 °C

----------
property measured: melting point

# input Return reported melting point; argument: O=C1Nc2ccccc2/C1=C(/Nc1ccccc1C(=O)O)c1ccccc1
# output 227 to 230 °C

Please give melting point, item by item, for the list that follows.
1. O=C1Nc2ccc([N+](=O)[O-])cc2/C1=C(/Nc1ccc(CN2CCC(CO)CC2)cc1)c1ccccc1
2. CCCCS(=O)(=O)N(CC(=O)N(C)C)c1ccc(N/C(=C2\C(=O)Nc3ccccc32)c2ccccc2)cc1
3. Cl.NCC(=O)NCc1ccc(N/C(=C2\C(=O)Nc3ccccc32)c2ccccc2)cc1
4. COCCN(C)CC(=O)N(C)c1ccc(N/C(=C2\C(=O)Nc3ccccc32)c2ccccc2)cc1

# output
1: 227 to 228 °C; 2: 121 to 123 °C; 3: 190 to 195 °C; 4: 197 to 199 °C

----------
property measured: melting point

# annotated cases, reported melting point shown
# input Return reported melting point; argument: CN(c1ccc(N/C(=C2\C(=O)Nc3ccc([N+](=O)[O-])cc32)c2ccccc2)cc1)S(C)(=O)=O
# output 306 to 308 °C

# input Return reported melting point; argument: COCC(=O)NCc1ccc(N/C(=C2\C(=O)Nc3ccccc32)c2ccccc2)cc1
# output 178 to 180 °C

# input Return reported melting point; argument: Nc1ccc(N/C(=C2\C(=O)Nc3ccc([N+](=O)[O-])cc32)c2ccccc2)cc1
# output 269 °C

# input Return reported melting point; argument: CN(CCCOc1ccc(N/C(=C2\C(=O)Nc3ccccc32)c2ccccc2)cc1)Cc1ccccc1
# output 187 to 189 °C

# input Return reported melting point; argument: CNCc1ccc(N/C(=C2\C(=O)Nc3ccc([N+](=O)[O-])cc32)c2ccccc2)cc1.Cl
# output 351 °C

# input Return reported melting point; argument: CCOC(=O)CCNCc1ccc(N/C(=C2\C(=O)Nc3ccc([N+](=O)[O-])cc32)c2ccccc2)cc1
# output 129 to 131 °C

Please give melting point, item by item, for the list that follows.
1. NS(=O)(=O)c1ccc(N/C(=C2\C(=O)Nc3ccccc32)c2ccccc2)cc1
2. COc1cccc(/C(Nc2ccc(CN(C)C)cc2)=C2/C(=O)Nc3ccc([N+](=O)[O-])cc32)c1
3. O=CN(CCN1CCOCC1)c1ccc(N/C(=C2\C(=O)Nc3ccc([N+](=O)[O-])cc32)c2ccccc2)cc1
4. CN(C)CC(=O)N(C)c1ccc(N/C(=C2\C(=O)Nc3ccccc32)c2ccc(CN)cc2)cc1
5. CN(C)C(=O)CN(c1cccc(N/C(=C2\C(=O)Nc3ccccc32)c2ccc(CN)cc2)c1)S(C)(=O)=O

# output
254 °C
206 to 208 °C
207 °C
188 to 190 °C
220 °C

Please give melting point, item by item, for the list that follows.
1. CCS(=O)(=O)N(CCN(C)C)c1ccc(N/C(=C2\C(=O)Nc3ccccc32)c2ccccc2)cc1
2. CC(=O)NCc1ccc(/C(Nc2ccc(CNC(=O)OC(C)(C)C)cc2)=C2/C(=O)Nc3ccc([N+](=O)[O-])cc32)cc1

# output
1. 245 °C
2. 234 °C (dec.)

Please give melting point, item by item, for the list that follows.
1. CC(=O)NCc1ccc(/C(Nc2ccc(CCNC(=O)OC(C)(C)C)cc2)=C2/C(=O)Nc3ccc([N+](=O)[O-])cc32)cc1
2. CN(C)CCCOc1ccc(N/C(=C2\C(=O)Nc3ccccc32)c2ccccc2)cc1
3. CC(=O)N(C)c1cccc(N/C(=C2\C(=O)Nc3ccccc32)c2ccccc2)c1
4. CCOC(=O)c1ccc(N/C(=C2\C(=O)Nc3ccccc32)c2ccccc2)cc1
5. COC(=O)CNC(=O)c1ccc(/C(Nc2ccc(CN3CCCCC3)cc2)=C2/C(=O)Nc3ccc([N+](=O)[O-])cc32)cc1
6. CS(=O)(=O)N(CC(N)=O)c1cccc(N/C(=C2\C(=O)Nc3ccccc32)c2ccccc2)c1
7. O=C1Nc2ccc([N+](=O)[O-])cc2/C1=C(/Nc1ccc(CNc2ccccn2)cc1)c1ccccc1

# output
1: 94 °C (dec.); 2: 215 to 217 °C; 3: 237 to 239 °C; 4: 227 to 228 °C; 5: 230 to 235 °C; 6: 227 to 230 °C; 7: 266 to 268 °C

# input Return reported melting point; argument: CN(C(=O)CN1CCN(Cc2ccccc2)CC1)c1ccc(N/C(=C2\C(=O)Nc3ccccc32)c2ccccc2)cc1
# output 157 to 158 °C

----------
property measured: melting point

# annotated cases, reported melting point shown
# input Return reported melting point; argument: CN(C)CCNC(=O)CN(c1cccc(N/C(=C2\C(=O)Nc3ccccc32)c2ccccc2)c1)S(C)(=O)=O
# output 179 to 181 °C

# input Return reported melting point; argument: CN(C)C(=O)CN(c1ccc(N/C(=C2\C(=O)Nc3ccc([N+](=O)[O-])cc32)c2ccccc2)cc1)S(=O)(=O)c1ccccc1
# output 160 to 162 °C

# input Return reported melting point; argument: CN(C)C(=O)CN(c1ccc(N/C(=C2\C(=O)Nc3ccccc32)c2ccccc2)cc1)S(=O)(=O)Cc1ccccc1
# output 133 to 135 °C

# input Return reported melting point; argument: CN(C)CCN(C)S(=O)(=O)c1ccc(N/C(=C2\C(=O)Nc3ccccc32)c2ccccc2)cc1
# output 200 to 203 °C

# input for lookup
# input Return reported melting point; argument: CCN(CC)CC(=O)Nc1ccc(N/C(=C2\C(=O)Nc3ccc([N+](=O)[O-])cc32)c2ccccc2)cc1.Cl
# output 287 to 288 °C

----------
I'd be grateful if you could share measured melting point for these entries.

# input Return reported melting point; argument: Cl.NCCc1ccc(N/C(=C2\C(=O)Nc3ccc([N+](=O)[O-])cc32)c2ccccc2)cc1
# output 335 to 340 °C (dec.)

# input Return reported melting point; argument: CC(C)(C)OC(=O)NCc1cccc(N/C(=C2\C(=O)Nc3ccccc32)c2ccccc2)c1
# output 190 to 195 °C

More entries:
# input Return reported melting point; argument: CN(C)CCN(c1ccc(N/C(=C2\C(=O)Nc3ccccc32)c2ccccc2)cc1)S(=O)(=O)Cc1ccccc1
# output 244 °C

----------
property measured: melting point

# annotated cases, reported melting point shown
# input Return reported melting point; argument: O=CNc1cccc(N/C(=C2\C(=O)Nc3ccccc32)c2ccccc2)c1
# output 231 °C

# input Return reported melting point; argument: CCN(CC)S(=O)(=O)c1ccc(N/C(=C2\C(=O)Nc3ccccc32)c2ccccc2)cc1
# output 252 to 254 °C

# input Return reported melting point; argument: O=C1Nc2ccc([N+](=O)[O-])cc2/C1=C(/Nc1ccc(CN2CCOCC2)cc1)c1ccccc1
# output 273 °C

# input Return reported melting point; argument: CC(C)(C)OC(=O)Nc1ccc(N/C(=C2\C(=O)Nc3ccc([N+](=O)[O-])cc32)c2ccccc2)cc1
# output 235 to 237 °C (dec.)

# input Return reported melting point; argument: CCS(=O)(=O)N(CCN1CCOCC1)c1ccc(N/C(=C2\C(=O)Nc3ccccc32)c2ccccc2)cc1
# output 222 to 224 °C

Please give melting point, item by item, for the list that follows.
1. Cc1ccc(S(=O)(=O)N(CCN(C)C)c2ccc(N/C(=C3\C(=O)Nc4ccccc43)c3ccccc3)cc2)cc1
2. CN(C)CCN(c1ccc(N/C(=C2\C(=O)Nc3ccccc32)c2ccc(CN)cc2)cc1)S(C)(=O)=O
3. Cl.NCC(=O)Nc1ccc(N/C(=C2\C(=O)Nc3ccccc32)c2ccccc2)cc1
4. CC(C)C(=O)N(CCN1CCOCC1)c1ccc(N/C(=C2\C(=O)Nc3ccccc32)c2ccccc2)cc1
5. CN(C)Cc1ccc(N/C(=C2\C(=O)Nc3ccc([N+](=O)[O-])cc32)c2ccccc2)cc1
6. CCOC(=O)CN(C(=O)CC)c1ccc(N/C(=C2\C(=O)Nc3ccccc32)c2ccccc2)cc1

# output
213 to 215 °C
203 to 205 °C
289 to 290 °C
239 °C
264 to 265 °C
229 to 232 °C
